# credit: patent US8680288B2

# System: ICAM-1 (Intercellular cell adhesion molecule-1)
# assay protocol: Cell-ELISA for measurement of LPS-induced ICAM-1 expression on endothelial cells
# Format: cell-based
# test settings: LPS (1 μg/ml) 16 hrs, human endothelial cells, read-out: ICAM-1 inhibition IC50
Would you kindly list pIC50 for each of these compounds?
One number for each entry, as −log10 of the molar value.

Hey, quick one: what's pIC50 for each of these?
1. CCOC(=O)CCCCCCCC(Sc1ccccn1)C(=O)OC (centres unmarked)
2. CCCCCOC(=O)CCCC(Sc1ccccn1)C(=O)OC (centres unmarked)
3. CCCCOC(=O)CCSc1ccccn1
4. CCOC(=O)CCCCCCSc1ccccn1
5. O=C(CCSc1ccccn1)OC1CCCCC1

Ans:
4.00
4.07
4.10
4.01
3.87
